- Tested on: HEK293T cells transiently transfected with empty, wildtype, R183Q, or Q209L constructs
- MEASUREMENT_PROTOCOL: MTT assay dose response curve for puromycin, 24 well plate, transiently transfected cells
- Type: cell-based
- CONDITION_PARAMETERS: Homo sapiens, HEK-293T, 72 h, Q209L construct, puromycin 3 days, read-out: Half maximal inhibitory concentration (IC50), cell number
- Procedure: FIG. 1 is a plot showing response of cells as a function of puromycin concentration. HEK293T cells were transiently transfected with empty, wildtype, R183Q, or Q209L constructs and then exposed to puromycin for 3 days before cell number was assessed by MTT assay in 24 well plate. […] Three days later, the relative cell numbers were detected using MTT assay reagents (CellTiter 96® Aqueous One Solution Cell Proliferation Assay Reagents) as follows. […]
READOUT_TYPE: pIC50
To interpret pIC50, take it as minus log10 of a concentration measured in moles per litre.

**Q:** Query: pIC50; subject: COc1ccc(C[C@H](N)C(=O)N[C@H]2[C@@H](O)[C@H](n3cnc4c(N(C)C)ncnc43)O[C@@H]2CO)cc1
**A:** 6.72
